Listed compounds paired with reported CC50
Experimental Details: Cellular toxicity, same assay as Example B.4 without TAM (Example B.5)
Type: cell-based
Test Context: mouse; Pfa1 cells without TAM; read-out: TC50 (the source's name)

Worked examples, 5 compounds total:
                                   compound  test_readout  experimental_value
0  CN1CCC2(CC1)Nc1ccccc1N=C2NCc1cccc(C(F)(F)F)c1          CC50          5 to 10 µM
1     CN1CCC2(CC1)Nc1ccccc1N=C2NCc1ccccc1Cl          CC50          5 to 10 µM
2      Clc1ccc(CNC2=Nc3ccccc3NC23CCNCC3)cc1          CC50          5 to 10 µM
3     COc1cccc(CNC2=Nc3ccccc3NC23CCCCCC3)c1          CC50         20 to 50 µM
4         c1ccc(CNC2=Nc3ccccc3NC23CCCC3)cc1          CC50         20 to 50 µM

Prompt line: Find the recorded CC50 belonging to `Cc1cc(C)cc(CNC2=Nc3cc(C)c(C)cc3NC23CCNCC3)c1` and report it.
Response line: 0.5 to 1 µM

Prompt line: Find the recorded CC50 belonging to `Cc1cccc(CNC2=Nc3ccccc3NC23CCOCC3)c1` and report it.
Response line: 50 to 100 µM

Prompt line: Find the recorded CC50 belonging to `Fc1ccc(CNC2=Nc3ccccc3NC23CCOCC3)c(F)c1` and report it.
Response line: 50 to 100 µM

----------
Experimental Details: Cellular toxicity, same assay as Example B.4 without TAM (Example B.5)
Format: cell-based
Test Context: mouse; Pfa1 cells without TAM; read-out: TC50 (the source's name)
Test Readout: CC50

Worked examples, 5 compounds total:
>>> df
                               query_smiles  test_readout  experimental_value
0  CC(C)(C)c1ccc(CNC2=Nc3ccccc3NC23CCOCC3)cc1          CC50         20 to 50 µM
1  Clc1cc2c(cc1Cl)NC1(CCCCCCC1)C(NCc1ccccc1)=N2          CC50         10 to 20 µM
2     Clc1cccc(CCNC2=Nc3ccccc3NC23CCNCC3)c1          CC50           2 to 5 µM
3  FC(F)(F)c1cccc(CNC2=Nc3cc(Cl)c(Cl)cc3NC23CCCCC3)c1          CC50         10 to 20 µM
4        c1ccc(CNC2=Nc3ccccc3NC23CCSCC3)cc1          CC50        50 to 100 µM

Prompt line: Find the recorded CC50 belonging to `Clc1ccc(CNC2=Nc3ccccc3NC23CCCCC3)cc1Cl` and report it.
Response line: 20 to 50 µM

Prompt line: Find the recorded CC50 belonging to `Clc1ccc(CNC2=Nc3ccccc3NC23CCOCC3)cc1Cl` and report it.
Response line: 20 to 50 µM

Prompt line: Find the recorded CC50 belonging to `Clc1ccc(CNC2=Nc3ccccc3NC23CCSCC3)cc1` and report it.
Response line: 20 to 50 µM

Prompt line: Find the recorded CC50 belonging to `Cc1cc2c(cc1C)NC1(CCNCC1)C(NCc1ccc(Cl)cc1)=N2` and report it.
Response line: 1 to 2 µM

Prompt line: Find the recorded CC50 belonging to `Clc1cccc(CNC2=Nc3ccccc3NC23CCSCC3)c1` and report it.
Response line: 20 to 50 µM

Prompt line: Find the recorded CC50 belonging to `Clc1cccc(CCNC2=Nc3ccccc3NC23CCOCC3)c1` and report it.
Response line: 20 to 50 µM
